# credit: patent US8541588B2

- measurement_target: Nav1.7 (or SCN9A) channel; HEK cells stably transfected with hSCN9A (Homo sapiens)
- Construct: expressed in transfected cells
- Sequence (Q15858 whole entry): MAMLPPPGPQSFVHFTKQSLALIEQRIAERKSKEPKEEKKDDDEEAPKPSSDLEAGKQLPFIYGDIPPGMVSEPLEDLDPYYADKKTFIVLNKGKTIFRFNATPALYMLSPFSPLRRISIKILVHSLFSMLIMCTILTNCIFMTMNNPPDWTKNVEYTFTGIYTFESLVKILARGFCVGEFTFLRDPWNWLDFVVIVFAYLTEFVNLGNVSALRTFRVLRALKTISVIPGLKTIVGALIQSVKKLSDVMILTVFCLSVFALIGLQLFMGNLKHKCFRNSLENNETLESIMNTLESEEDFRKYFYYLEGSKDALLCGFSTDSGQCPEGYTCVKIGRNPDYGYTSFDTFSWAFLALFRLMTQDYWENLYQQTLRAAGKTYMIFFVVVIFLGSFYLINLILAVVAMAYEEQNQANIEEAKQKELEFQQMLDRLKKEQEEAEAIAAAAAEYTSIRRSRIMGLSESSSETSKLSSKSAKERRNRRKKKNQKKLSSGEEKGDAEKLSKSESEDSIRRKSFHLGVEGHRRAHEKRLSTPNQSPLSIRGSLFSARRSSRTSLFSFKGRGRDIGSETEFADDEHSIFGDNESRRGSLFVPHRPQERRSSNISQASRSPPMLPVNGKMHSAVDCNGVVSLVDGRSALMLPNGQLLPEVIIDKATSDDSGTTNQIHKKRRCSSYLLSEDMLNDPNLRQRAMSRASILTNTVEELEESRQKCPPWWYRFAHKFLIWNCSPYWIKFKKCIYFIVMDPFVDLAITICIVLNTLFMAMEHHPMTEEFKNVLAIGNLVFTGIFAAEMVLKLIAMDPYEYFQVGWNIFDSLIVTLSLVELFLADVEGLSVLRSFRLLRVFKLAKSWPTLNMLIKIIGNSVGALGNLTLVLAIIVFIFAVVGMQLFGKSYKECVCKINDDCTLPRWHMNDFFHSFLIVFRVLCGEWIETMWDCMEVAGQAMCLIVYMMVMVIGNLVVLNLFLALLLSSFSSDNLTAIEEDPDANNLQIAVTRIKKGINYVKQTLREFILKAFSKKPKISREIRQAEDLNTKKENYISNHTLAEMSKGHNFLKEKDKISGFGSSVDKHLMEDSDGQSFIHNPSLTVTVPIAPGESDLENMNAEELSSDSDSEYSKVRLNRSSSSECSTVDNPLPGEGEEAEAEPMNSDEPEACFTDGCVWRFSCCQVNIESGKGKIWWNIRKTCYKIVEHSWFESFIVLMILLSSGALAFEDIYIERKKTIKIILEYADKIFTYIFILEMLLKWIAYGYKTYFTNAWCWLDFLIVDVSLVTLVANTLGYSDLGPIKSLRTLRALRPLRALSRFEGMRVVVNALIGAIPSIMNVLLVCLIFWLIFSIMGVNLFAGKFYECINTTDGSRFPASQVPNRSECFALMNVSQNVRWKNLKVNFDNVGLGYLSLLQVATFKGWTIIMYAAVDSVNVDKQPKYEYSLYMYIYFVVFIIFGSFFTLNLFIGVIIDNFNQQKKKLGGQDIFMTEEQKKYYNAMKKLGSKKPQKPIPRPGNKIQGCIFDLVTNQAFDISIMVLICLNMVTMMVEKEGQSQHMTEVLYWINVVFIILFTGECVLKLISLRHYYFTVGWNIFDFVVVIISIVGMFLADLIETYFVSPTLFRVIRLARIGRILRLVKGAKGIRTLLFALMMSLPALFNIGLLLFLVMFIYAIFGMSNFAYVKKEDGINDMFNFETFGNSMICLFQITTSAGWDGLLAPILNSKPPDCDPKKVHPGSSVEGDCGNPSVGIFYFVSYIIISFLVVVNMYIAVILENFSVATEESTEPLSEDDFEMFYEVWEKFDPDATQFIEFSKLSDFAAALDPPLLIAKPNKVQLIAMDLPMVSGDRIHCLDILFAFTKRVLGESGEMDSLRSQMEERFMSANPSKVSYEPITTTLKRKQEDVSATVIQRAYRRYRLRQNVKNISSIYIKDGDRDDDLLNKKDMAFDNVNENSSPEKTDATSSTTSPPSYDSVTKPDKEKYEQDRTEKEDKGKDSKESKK
- test_name: Nav1.7 block, PatchXpress 7000 automated whole-cell voltage clamp, estimated IC50 (EIC50)
- Format: cell-based
- condition_parameters: PatchXpress platform; hSCN9A HEK cells held at V1/2 of inactivation; estimated IC50
quantity_measured: IC50 (µM)

>>> value_measured("O=C(O)Cn1nccc1-c1cc(F)ccc1Oc1ccc(S(=O)(=O)Nc2nccs2)cc1F [Example 238]")
2.21
>>> value_measured("O=S(=O)(Nc1nccs1)c1ccc(Oc2ccc(F)cc2-c2ccnn2CCO)c(F)c1 [Example 237]")
0.21

(P) N#Cc1cc(S(=O)(=O)Nc2nccs2)ccc1Oc1ccc(-c2cc[nH]n2)cc1F [Example 185]
(Q) N#Cc1cc(S(=O)(=O)Nc2nccs2)ccc1Oc1cc(-c2ccccc2)nn1CC(F)(F)F [Example 190]
Of P and Q , which one carries the higher reported IC50? Lab note: record the label of whichever item you select.
P
